Tested on: IL-6 secretion
Experiment: IL-6 secretion assay in astrocytes (Promega Lumit IL-6 kit)
Format: cell-based, human
Details: Homo sapiens, Astrocyte; Table 2; astrocytes; read-out: IL6-Inhib.
Checkbox rule: IC50 lower than 4 µM = True; IC50 not lower than 4 µM = False.

{"molecule": "COc1nc(-c2cc(=O)c3cc(Cl)cc(Br)c3o2)ccc1O [JKT.669A]", "category": "True"}
{"molecule": "COc1nc(-c2cc(=O)c3cccc(Br)c3o2)ccc1O [JKT.666A]", "category": "True"}
{"molecule": "COc1nc(-c2cc(=O)c3cc(Cl)cc(Cl)c3o2)ccc1O [JKT.678A]", "category": "True"}
{"molecule": "COc1cc(-c2cc(=O)c3cc(Br)cc(Br)c3o2)ncc1O [JKT.77A]", "category": "False"}
{"molecule": "O=c1cc(-c2ccc(O)c(Br)c2)oc2c(Br)cc(Br)cc12 [JKT.464A]", "category": "False"}
{"molecule": "O=c1cc(-c2ccc(O)c(C(F)(F)F)c2)oc2c(Br)cc(Br)cc12 [JKT.460A]", "category": "True"}
{"molecule": "COc1nc(-c2cc(=O)c3cc(Br)cc(Br)c3o2)ccc1O [JKT.606A]", "category": "True"}
{"molecule": "O=c1cc(-c2cc(Cl)c(O)c(Cl)c2)oc2c(Br)cc(Br)cc12 [JKT.465A]", "category": "False"}
{"molecule": "Cc1cc(-c2cc(=O)c3cc(Br)cc(Br)c3o2)ccc1O [JKT.475A]", "category": "False"}
{"molecule": "O=c1cc(-c2cc(F)c(O)c(F)c2)oc2c(Br)cc(Br)cc12 [JKT.461B]", "category": "False"}
{"molecule": "COc1cc(-c2cc(=O)c3cc(Br)c(OC)c(Br)c3o2)ccc1O [JKT.706A]", "category": "False"}

---

Target: CK2A1 (Homo sapiens)
Construct: purchased Eurofins
Sequence (P68400 whole entry): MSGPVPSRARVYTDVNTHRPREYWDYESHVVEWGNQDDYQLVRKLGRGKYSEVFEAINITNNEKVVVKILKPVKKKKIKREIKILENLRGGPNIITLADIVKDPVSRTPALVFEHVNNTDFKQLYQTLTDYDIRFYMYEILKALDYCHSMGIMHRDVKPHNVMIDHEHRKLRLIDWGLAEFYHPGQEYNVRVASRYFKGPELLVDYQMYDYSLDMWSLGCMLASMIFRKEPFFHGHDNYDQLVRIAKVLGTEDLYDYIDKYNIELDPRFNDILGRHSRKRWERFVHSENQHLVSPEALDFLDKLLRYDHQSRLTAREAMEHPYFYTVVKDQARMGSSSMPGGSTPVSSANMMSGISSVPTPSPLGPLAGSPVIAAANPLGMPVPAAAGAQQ
Experiment: Radiometric kinase assay (Eurofins), CK2A1
Type: biochemical
Details: Table 12; read-out: CK2A1 RAD IC50
measured_metric: IC50 (µM)

{"compound": "COc1cc(/C=C2\\Oc3c(ccc(OC)c3Br)C2=O)ncc1O [Compound 1189A]", "measured_metric": "IC50", "result_qualifier": "=", "number": 0.117}
{"compound": "COc1nc(/C=C2\\Oc3c(Br)cccc3C2=O)ccc1O [Compound 1226A]", "measured_metric": "IC50", "result_qualifier": "=", "number": 0.131}
{"compound": "COc1nc(/C=C2\\Oc3c(Br)cc(Br)cc3C2=O)ccc1O [Compound 1150A]", "measured_metric": "IC50", "result_qualifier": "=", "number": 0.178}
{"compound": "COc1c(Br)cc2c(c1Br)O/C(=C\\c1ccc(O)c(C3CC3)c1)C2=O [Compound 1134A]", "measured_metric": "IC50", "result_qualifier": ">", "number": 5}
{"compound": "COc1cc(/C=C2\\Oc3c(Br)cccc3C2=O)ncc1O [Compound 1236B]", "measured_metric": "IC50", "result_qualifier": "=", "number": 0.172}
{"compound": "O=C1/C(=C/c2cc(Br)c(O)cn2)Oc2c(Br)cccc21 [Compound 1237A]", "measured_metric": "IC50", "result_qualifier": "=", "number": 0.067}
{"compound": "COc1nc(/C=C2\\Oc3c(cc(Br)c(OC)c3Br)C2=O)ccc1O [Compound 1159A]", "measured_metric": "IC50", "result_qualifier": "=", "number": 1.02}
{"compound": "C#Cc1cc(/C=C2\\Oc3c(cc(Br)c(OC)c3Br)C2=O)ccc1O [Compound 1229A]", "measured_metric": "IC50", "result_qualifier": "=", "number": 0.151}
